# maps each entry to its folding stability dG
B1: HEEH_KT_rd6_0007 (parent)
chain: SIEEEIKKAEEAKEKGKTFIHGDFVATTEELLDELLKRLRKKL

Variants of: B1
assayNotes: folding stability dG (cDNA display proteolysis); higher = more stable
conditionSet: PBS, room temperature

[
  {
    "variantId": "E11D",
    "folding stability dG, kcal/mol": 1.27
  },
  {
    "variantId": "T27S",
    "folding stability dG, kcal/mol": 1.57
  },
  {
    "variantId": "E4D",
    "folding stability dG, kcal/mol": 1.27
  },
  {
    "variantId": "I2A",
    "folding stability dG, kcal/mol": 0.756
  },
  {
    "variantId": "L39Y",
    "folding stability dG, kcal/mol": 0.697
  },
  {
    "variantId": "I6R",
    "folding stability dG, kcal/mol": 0.719
  },
  {
    "variantId": "L39W",
    "folding stability dG, kcal/mol": 0.902
  },
  {
    "variantId": "K17L",
    "folding stability dG, kcal/mol": 1.9
  },
  {
    "variantId": "I2R",
    "folding stability dG, kcal/mol": 0.776
  },
  {
    "variantId": "K42M",
    "folding stability dG, kcal/mol": 1.74
  },
  {
    "variantId": "A12G",
    "folding stability dG, kcal/mol": 0.482
  },
  {
    "variantId": "G22K",
    "folding stability dG, kcal/mol": 0.822
  },
  {
    "variantId": "I2W",
    "folding stability dG, kcal/mol": 1.04
  },
  {
    "variantId": "R40H",
    "folding stability dG, kcal/mol": 0.662
  },
  {
    "variantId": "K41N",
    "folding stability dG, kcal/mol": 1.11
  },
  {
    "variantId": "E4G",
    "folding stability dG, kcal/mol": 0.862
  },
  {
    "variantId": "I2F",
    "folding stability dG, kcal/mol": 0.811
  },
  {
    "variantId": "T18V",
    "folding stability dG, kcal/mol": 1.48
  },
  {
    "variantId": "T27Y",
    "folding stability dG, kcal/mol": 1.62
  },
  {
    "variantId": "I6E",
    "folding stability dG, kcal/mol": 0.593
  },
  {
    "variantId": "G22L",
    "folding stability dG, kcal/mol": 1.2
  },
  {
    "variantId": "A26S",
    "folding stability dG, kcal/mol": 0.724
  }
]
